Source of measurements: patent US20100130424A1

Molecular target: T1, human CRH receptor type 2 (human, UniProt Q13324 1-411)
T1 sequence (looked up): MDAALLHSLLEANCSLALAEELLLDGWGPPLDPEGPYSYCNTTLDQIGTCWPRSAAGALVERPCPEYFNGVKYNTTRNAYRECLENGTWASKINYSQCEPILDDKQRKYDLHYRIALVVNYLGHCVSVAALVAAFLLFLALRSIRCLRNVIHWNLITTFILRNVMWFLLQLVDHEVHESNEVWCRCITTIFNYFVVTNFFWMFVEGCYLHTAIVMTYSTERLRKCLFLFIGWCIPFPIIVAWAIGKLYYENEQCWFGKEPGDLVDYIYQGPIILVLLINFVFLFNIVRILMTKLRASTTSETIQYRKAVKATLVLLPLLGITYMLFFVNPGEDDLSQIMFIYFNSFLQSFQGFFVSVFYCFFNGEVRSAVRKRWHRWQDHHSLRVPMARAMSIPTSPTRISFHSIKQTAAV
Assay: cell-based or functional assay
No end group written: not given here.
Measured pA50, cAMP, listed per entry for reference.

Here is how some binders turned out for pA50, cAMP.
TKFTLSLCVPTNIMNLLFNIAKAKNLRAQAAANAHLMAQI-NH2 [Cys-variant CRHR2 peptide agonist, SEQ ID NO: 9] ... 7.8 -log M
TKFTLSLDVPTNIMNLLFNIAKAKNLRAQAACNAHLMAQI (NES-PEG (about 20 kDa) on Cys 32; C-terminal amide) [Pegylated Cys-variant CRHR2 peptide agonist (NES linker, PEG about 20 kDa), SEQ ID NO: 86] ... 8.79 -log M

Then this binder:
Q: Would you kindly share the measured pA50, cAMP for TKFTLSLDVPTNIMNLLFNIAKAKNLRCQAAANAHLMAQI (NES-PEG-NEM MW20000 on Cys 28 (double-ended linear PEG with an N-Ethylmaleimide cap at the non-linked end); C-terminal amide) [Pegylated Cys-variant CRHR2 peptide agonist (NES-PEG-NEM MW20000), SEQ ID NO: 98] ?
A: 9.5 -log M
